// data source = patent US10166216B2

Would you mind telling me the reported IC50 of each entry?
biological target: Axl (Homo sapiens (Human), UniProt P30530); assay: Phospho-Akt in-cell Western assay (Axl-antibody cross-linking stimulation); type: cell-based; conditions: inhibition of Axl activity, phospho-Akt in-cell Western assay
Sequence (P30530 26-894): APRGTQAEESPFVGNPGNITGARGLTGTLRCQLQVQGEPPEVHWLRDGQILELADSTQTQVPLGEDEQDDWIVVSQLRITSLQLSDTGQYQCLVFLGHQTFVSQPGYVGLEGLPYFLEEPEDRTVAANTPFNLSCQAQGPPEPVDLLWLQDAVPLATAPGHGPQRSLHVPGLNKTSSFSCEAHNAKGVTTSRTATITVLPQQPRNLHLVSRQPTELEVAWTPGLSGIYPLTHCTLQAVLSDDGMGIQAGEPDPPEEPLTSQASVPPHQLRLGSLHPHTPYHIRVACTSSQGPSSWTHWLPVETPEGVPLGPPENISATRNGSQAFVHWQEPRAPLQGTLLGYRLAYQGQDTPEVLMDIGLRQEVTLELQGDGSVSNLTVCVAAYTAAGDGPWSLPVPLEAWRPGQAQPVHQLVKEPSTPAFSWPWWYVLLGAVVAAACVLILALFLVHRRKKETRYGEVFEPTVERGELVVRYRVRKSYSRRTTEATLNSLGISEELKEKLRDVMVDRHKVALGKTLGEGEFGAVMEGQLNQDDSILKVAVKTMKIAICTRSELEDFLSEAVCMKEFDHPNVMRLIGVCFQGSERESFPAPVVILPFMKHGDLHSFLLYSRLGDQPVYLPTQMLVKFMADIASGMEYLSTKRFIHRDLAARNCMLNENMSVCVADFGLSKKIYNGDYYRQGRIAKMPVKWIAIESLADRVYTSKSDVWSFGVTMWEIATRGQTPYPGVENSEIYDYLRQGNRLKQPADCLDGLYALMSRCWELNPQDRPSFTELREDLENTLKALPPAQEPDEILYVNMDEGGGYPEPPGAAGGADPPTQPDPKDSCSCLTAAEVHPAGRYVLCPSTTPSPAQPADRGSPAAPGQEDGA

Write down IC50 measured for item CCN1CCN(c2cc(Nc3nc(N)n(-c4ncnc5cc(OC)c(OC)cc45)n3)ccc2Cl)CC1 [Compound 119] 1000 to 10000 nM

Write down IC50 measured for item COc1cc2ncnc(-n3nc(Nc4ccc(N5CCN(C)CC5)c(F)c4)nc3N)c2cc1OC [Compound 105] < 1000 nM

Write down IC50 measured for item COc1cc2c(-n3nc(Nc4ccc(N5CCN(C6CCCCC6)CC5)cc4)nc3N)ncnc2cc1O [Compound 82] < 1000 nM

Write down IC50 measured for item COc1cc2c(-n3nc(Nc4ccc(N5CCN(C6CC7CCC6C7)CC5)cc4)nc3N)nc(Cl)nc2cc1O (stereo not shown) [Compound 102] < 1000 nM
